Reported melting temperature values follow for various sequences
Tested on: HeLa Kyoto
Test: melting temperature (median over replicates), in situ; higher = more thermally stable
Conditions: cell cycle stage: mitosis

>  <sequence_data>
MADPRVRQIKIKTGVVKRLVKEKVMYEKEAKQQEEKIEKMRAEDGENYDIKKQAEILQESRMMIPDCQRRLEAAYLDLQRILENEKDLEEAEEYKEARLVLDSVKLEA [TBCA]

>  <melting temperature [°C]>
53

$$$$
>  <sequence_data>
MFISLWEFFYGHFFRFWMKWLLRQMTGKCELQRIFDTYVGAQRTHRIENSLTYSKNKVLQKATHVVQSEVDKYVDDIMKEKNINPEKDASFKICMKMCLLQITGYKQLYLDVESVRKRPYDSDNLQHEELLMKLWNLLMPTKKLNARISKQWAEIGFQGDDPKTDFRGMGILGLINLVYFSENYTSEAHQILSRSNHPKLGYSYAIVGINLTEMAYSLLKSEALKFHLYNLVPGIPTMEHFHQFYCYLVYEFDKFWFEEEPESIMYFNLYREKFHEKIKGLLLDCNVALTLKV [ELMOD2]

>  <melting temperature [°C]>
51.3

$$$$
>  <sequence_data>
MGDPERPEAAGLDQDERSSSDTNESEIKSNEEPLLRKSSRRFVIFPIQYPDIWKMYKQAQASFWTAEEVDLSKDLPHWNKLKADEKYFISHILAFFAASDGIVNENLVERFSQEVQVPEARCFYGFQILIENVHSEMYSLLIDTYIRDPKKREFLFNAIETMPYVKKKADWALRWIADRKSTFGERVVAFAAVEGVFFSGSFAAIFWLKKRGLMPGLTFSNELISRDEGLHCDFACLMFQYLVNKPSEERVREIIVDAVKIEQEFLTEALPVGLIGMNCILMKQYIEFVADRLLVELGFSKVFQAENPFDFMENISLEGKTNFFEKRVSEYQRFAVMAETTDNVFTLDADF [RRM2B]

>  <melting temperature [°C]>
54.2

$$$$

----------
Tested on: HeLa Kyoto
Assay: thermal stability score vs G1/S (z-score of summed log2 fold changes over temperatures); higher = more thermally stable than in G1/S
Details: cell cycle stage: mitosis
Entries are grouped by thermal stability score into these classes: one: < 0.7; two: ≥ 0.7 and < 2; three: ≥ 2

>  <substance>
APOBEC3B

>  <cat>
two

$$$$
>  <substance>
HNRNPU

>  <cat>
three

$$$$
>  <substance>
MAAGAAEAAVAAVEEVGSAGQFEELLRLKAKSLLVVHFWAPWAPQCAQMNEVMAELAKELPQVSFVKLEAEGVPEVSEKYEISSVPTFLFFKNSQKIDRLDGAHAPELTKKVQRHASSGSFLPSANEHLKEDLNLRLKKLTHAAPCMLFMKGTPQEPRCGFSKQMVEILHKHNIQFSSFDIFSDEEVRQGLKAYSSWPTYPQLYVSGELIGGLDIIKELEASEELDTICPKAPKLEERLKVLTNKASVMLFMKGNKQEAKCGFSKQILEILNSTGVEYETFDILEDEEVRQGLKAYSNWPTYPQLYVKGELVGGLDIVKELKENGELLPILRGEN [GLRX3]

>  <cat>
two

$$$$
>  <substance>
MAVKKIAIFGATGQTGLTTLAQAVQAGYEVTVLVRDSSRLPSEGPRPAHVVVGDVLQAADVDKTVAGQDAVIVLLGTRNDLSPTTVMSEGARNIVAAMKAHGVDKVVACTSAFLLWDPTKVPPRLQAVTDDHIRMHKVLRESGLKYVAVMPPHIGDQPLTGAYTVTLDGRGPSRVISKHDLGHFMLRCLTTDEYDGHSTYPSHQYQ [BLVRB]

>  <cat>
three

$$$$
>  <substance>
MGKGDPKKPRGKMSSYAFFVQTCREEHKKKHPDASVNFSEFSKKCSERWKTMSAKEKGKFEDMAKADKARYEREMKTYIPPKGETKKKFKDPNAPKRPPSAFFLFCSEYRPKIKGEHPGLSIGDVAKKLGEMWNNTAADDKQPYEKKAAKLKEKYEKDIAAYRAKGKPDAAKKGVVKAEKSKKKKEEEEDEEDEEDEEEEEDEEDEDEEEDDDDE [HMGB1]

>  <cat>
three

$$$$
>  <substance>
MGEFNEKKTTCGTVCLKYLLFTYNCCFWLAGLAVMAVGIWTLALKSDYISLLASGTYLATAYILVVAGTVVMVTGVLGCCATFKERRNLLRLYFILLLIIFLLEIIAGILAYAYYQQLNTELKENLKDTMTKRYHQPGHEAVTSAVDQLQQEFHCCGSNNSQDWRDSEWIRSQEAGGRVVPDSCCKTVVALCGQRDHASNIYKVEGGCITKLETFIQEHLRVIGAVGIGIACVQVFGMIFTCCLYRSLKLEHY [CD151]

>  <cat>
one

$$$$
>  <substance>
MAAQQRDCGGAAQLAGPAAEADPLGRFTCPVCLEVYEKPVQVPCGHVFCSACLQECLKPKKPVCGVCRSALAPGVRAVELERQIESTETSCHGCRKNFFLSKIRSHVATCSKYQNYIMEGVKATIKDASLQPRNVPNRYTFPCPYCPEKNFDQEGLVEHCKLFHSTDTKSVVCPICASMPWGDPNYRSANFREHIQRRHRFSYDTFVDYDVDEEDMMNQVLQRSIIDQ [RNF114]

>  <cat>
one

$$$$
>  <substance>
MGHPPLLPLLLLLHTCVPASWGLRCMQCKTNGDCRVEECALGQDLCRTTIVRLWEEGEELELVEKSCTHSEKTNRTLSYRTGLKITSLTEVVCGLDLCNQGNSGRAVTYSRSRYLECISCGSSDMSCERGRHQSLQCRSPEEQCLDVVTHWIQEGEEGRPKDDRHLRGCGYLPGCPGSNGFHNNDTFHFLKCCNTTKCNEGPILELENLPQNGRQCYSCKGNSTHGCSSEETFLIDCRGPMNQCLVATGTHEPKNQSYMVRGCATASMCQHAHLGDAFSMNHIDVSCCTKSGCNHPDLDVQYRSGAAPQPGPAHLSLTITLLMTARLWGGTLLWT [PLAUR]

>  <cat>
three

$$$$
>  <substance>
MPEAPPLLLAAVLLGLVLLVVLLLLLRHWGWGLCLIGWNEFILQPIHNLLMGDTKEQRILNHVLQHAEPGNAQSVLEAIDTYCEQKEWAMNVGDKKGKIVDAVIQEHQPSVLLELGAYCGYSAVRMARLLSPGARLITIEINPDCAAITQRMVDFAGVKDKVTLVVGASQDIIPQLKKKYDVDTLDMVFLDHWKDRYLPDTLLLEECGLLRKGTVLLADNVICPGAPDFLAHVRGSSCFECTHYQSFLEYREVVDGLEKAIYKGPGSEAGP [COMT]

>  <cat>
three

$$$$
>  <substance>
HDGFRP2

>  <cat>
one

$$$$
>  <substance>
MSEEQFGGDGAAAAATAAVGGSAGEQEGAMVAATQGAAAAAGSGAGTGGGTASGGTEGGSAESEGAKIDASKNEEDEGHSNSSPRHSEAATAQREEWKMFIGGLSWDTTKKDLKDYFSKFGEVVDCTLKLDPITGRSRGFGFVLFKESESVDKVMDQKEHKLNGKVIDPKRAKAMKTKEPVKKIFVGGLSPDTPEEKIREYFGGFGEVESIELPMDNKTNKRRGFCFITFKEEEPVKKIMEKKYHNVGLSKCEIKVAMSKEQYQQQQQWGSRGGFAGRARGRGGGPSQNWNQGYSNYWNQGYGNYGYNSQGYGGYGGYDYTGYNNYYGYGDYSNQQSGYGKVSRRGGHQNSYKPY [HNRNPD]

>  <cat>
one

$$$$

The reported measurements were obtained from the supplement of paper PMC5998384.
